- testSummary: Half life in mouse
- Format: ADME, organism-based
- measurementConditions: in vivo

| molecule | half-life, h |
| --- | --- |
| Cn1cc(C2(c3cc(C(=O)O)ccn3)N[C@@H](c3nc(-c4ccc(F)cc4)c[nH]3)Cc3c2[nH]c2ccccc32)cn1 (single isomer, unassigned; 3A) | 2.62 |

* * *

- targetOrSystem: Somatostatin receptor type 1 (Homo sapiens)
- Sequence (P30872 whole entry): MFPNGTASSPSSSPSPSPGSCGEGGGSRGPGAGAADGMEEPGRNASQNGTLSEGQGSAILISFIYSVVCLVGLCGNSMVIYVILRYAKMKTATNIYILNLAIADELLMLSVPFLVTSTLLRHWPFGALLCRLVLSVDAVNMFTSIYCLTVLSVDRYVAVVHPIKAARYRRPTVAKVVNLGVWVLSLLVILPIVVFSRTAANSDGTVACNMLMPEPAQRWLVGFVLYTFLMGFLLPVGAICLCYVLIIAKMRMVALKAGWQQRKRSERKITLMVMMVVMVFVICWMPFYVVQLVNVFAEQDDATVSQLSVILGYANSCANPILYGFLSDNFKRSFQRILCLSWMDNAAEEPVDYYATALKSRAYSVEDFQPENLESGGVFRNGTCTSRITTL
property: IC50

| compound | endpointResult |
| --- | --- |
| Cn1cc(C2(c3cc(C(=O)O)ccn3)N[C@@H](c3nc(-c4ccc(F)cc4)c[nH]3)Cc3c2[nH]c2ccccc32)cn1 (single isomer, unassigned; 3A) | > 10 µM |
